# System Tested: chlorite dismutase (Cld) (Dechloromonas aromatica (nom. nud.), UniProt Q47CX0)
# Sequence (Q47CX0 35-282): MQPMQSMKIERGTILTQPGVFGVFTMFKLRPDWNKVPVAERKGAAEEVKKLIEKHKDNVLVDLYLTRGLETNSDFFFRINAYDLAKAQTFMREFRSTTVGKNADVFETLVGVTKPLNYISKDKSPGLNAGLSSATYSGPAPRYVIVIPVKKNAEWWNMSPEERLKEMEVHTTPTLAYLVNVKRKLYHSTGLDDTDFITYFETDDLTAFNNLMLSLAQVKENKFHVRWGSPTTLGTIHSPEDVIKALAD
# Assay Notes: X-ray co-crystal structure
# Assay type: binding
Measurement Label: Kd (µM)
Answer format: numeric, µM implied, no suffix.

Test item O=NO ; chlorite dismutase (Cld) (Dechloromonas aromatica (nom. nud.), UniProt Q47CX0); reported Kd was 1120

Attribution: paper PMC2909366
